Reported melting point values follow for various compounds

{"Compound": "COc1ccc(N2CCC(=O)N(c3ccc(F)cc3)CC2)c(-c2ccc(N(C)C)cc2)n1", "melting point": "130 to 139 °C"}
{"Compound": "CCC(=O)Nc1cc(OC)cc2c1CC(C)O2 (stereo unspecified)", "melting point": "101 °C"}
{"Compound": "Cc1nnc(-c2ccc3ncn(-c4ccc(OC(F)F)cc4)c3c2)o1", "melting point": "154 to 155 °C"}
{"Compound": "CCOC(=O)N[C@H]1CC=C[C@H]2CNC(=O)[C@H]12 (racemic)", "melting point": "160 to 164 °C"}
{"Compound": "COC(C)CCOc1c(-c2ccc(S(C)(=O)=O)cc2)cnn(-c2ccc(F)c(F)c2)c1=O (stereo unspecified)", "melting point": "99 to 101 °C"}
{"Compound": "CCCN(C(=O)c1cccc(-c2nc(=O)c3ccccc3s2)n1)C(=O)N(C)C", "melting point": "191 to 192 °C"}
{"Compound": "c1ccc(N(CCCNC2=NC3CCC2CC3)c2ccccc2)cc1", "melting point": "148 to 150 °C"}
{"Compound": "CC(CN(C(C)C)C(C)C)N1C(=O)C(=O)c2ccccc21 (stereo unspecified)", "melting point": "70 to 71 °C"}
{"Compound": "CCCCOC(=O)NC(=O)C(C)(c1ccccc1)c1ccccc1", "melting point": "83 °C"}
{"Compound": "COC(=O)[C@@H]1C[C@H](OC(=N)C(Cl)(Cl)Cl)C(=O)[C@H]2[C@@]1(C)CC[C@H]1C(=O)O[C@H](c3ccoc3)C[C@]21C", "melting point": "120 to 123 °C"}
{"Compound": "CCCCNC(=O)OCCCC(=O)c1ccccc1", "melting point": "52 to 58 °C"}
{"Compound": "C#Cc1ccc(NC=C(C(=O)NCCC)C(=O)c2ccccc2Cl)cc1", "melting point": "95 to 96 °C"}
{"Compound": "O=C1CC2CCSc3ccccc3C2=NN1c1ccccc1 (stereo unspecified)", "melting point": "138 to 140 °C"}
{"Compound": "CSc1ccc2c(c1)Cc1ccc(C(=O)O)cc1O2", "melting point": "266 to 267 °C"}
{"Compound": "CC(C)(N)Cc1c[nH]c2ccc(Cl)cc12", "melting point": "156 to 158 °C"}
{"Compound": "CC(O)(C=Cc1ccc(S(=O)(=O)N2CCCC2)cc1)C(F)(F)F (stereo unspecified)", "melting point": "119 to 121 °C"}
{"Compound": "O=c1[nH]c2cc(Cl)ccc2c(=O)c(-c2ccc([N+](=O)[O-])cc2)c1O", "melting point": "310 to 312 °C"}
{"Compound": "CC(C)Oc1ccc(-n2c(-c3ccc(C(=O)O)cc3)c(C(=O)O)c3cc(Oc4ccc(Cl)cc4)ccc32)cc1", "melting point": "217 to 222 °C"}
{"Compound": "NC(=O)CCc1ccncc1", "melting point": "164 to 166 °C"}
{"Compound": "CO[C@@H]1[C@@H](OC)[C@H](C)O[C@@H](OC(=S)Nc2ccc(-c3nccn3-c3ccc(OC(F)(F)F)cc3)cc2)[C@@H]1OC", "melting point": "129 °C"}
{"Compound": "ON=C1c2ccccc2CCC1Br (stereo unspecified)", "melting point": "125 to 131 °C"}
{"Compound": "O=C(O)CCCc1cc2nc(Cl)ccc2n1S(=O)(=O)c1ccc2ncsc2c1", "melting point": "178 °C"}
{"Compound": "O=C(SCCC(=O)N1CCC[C@H]1C(=O)O)c1ccccc1", "melting point": "101 to 102 °C"}
{"Compound": "CN(C)CCC(C(=O)O)c1cccc2ccccc12 (stereo unspecified)", "melting point": "130 to 135 °C"}
{"Compound": "CNc1nc(-c2cncc(Br)c2)c2cc(OC)c(OC)cc2n1", "melting point": "228 to 230 °C"}
{"Compound": "CCOC(=O)c1ccc(-c2cc(O)c(C(CC(C)C)SC3CCCC3)c(=O)o2)cc1 (stereo unspecified)", "melting point": "174 to 176 °C"}
